assay comment: Pharmacokinetics and tissue distribution (lung, plasma, heart, kidney) of co-solvent formulations, bolus intratracheal aerosol
Assay type: in vivo, Sprague-Dawley rats
condition summary: Sprague-Dawley, rat, lung, other: intratracheal bolus aerosol (nebulizing catheter), 4 mg/kg, Group 6; 0.0667 hr; about 4 mg/kg pirfenidone IT bolus aerosol; read-out: Analyte in lung tissue, Mean
measurement label: concentration at 4 min (ng/g)
Unit ng/g implied. Number only.

Task item: Bench note: what concentration at 4 min did Cc1ccc(=O)n(-c2ccccc2)c1 [pirfenidone, 5-methyl-1-phenyl-2-(1H)-pyridone] show?
Reply: 7930

###

assay comment: Pharmacokinetics and tissue distribution (lung, plasma, heart, kidney) of co-solvent formulations, bolus intratracheal aerosol
Type: in vivo, Sprague-Dawley rats
condition summary: Sprague-Dawley, rat, lung, other: intratracheal bolus aerosol (nebulizing catheter), 4 mg/kg, Group 1; 0.0667 hr; about 4 mg/kg pirfenidone IT bolus aerosol; read-out: Analyte in lung tissue, Mean
measurement label: concentration at 4 min (ng/g)
Unit ng/g implied. Number only.

Task item: Bench note: what concentration at 4 min did Cc1ccc(=O)n(-c2ccccc2)c1 [pirfenidone, 5-methyl-1-phenyl-2-(1H)-pyridone] show?
Reply: 10400

Where do the numbers come from? From patent US11452718B2.
